Would you mind telling me the reported combination Emax of each entry?
Tested on: TE-6 (Esophageal Squamous Cell Carcinoma)
Test: combination Emax (second highest fraction inhibited in the dose matrix, 72 h); higher = more inhibition; extreme values may be limits of the assay
Numbers only.

Worked examples follow.
[[record]]
compound = "CN(C)CCCOc1ccc(-c2ccc3ncc4c(c3c2)n(C2CCOCC2)c(=O)n4C)cn1 [AZD0156] + C[C@@H]1COCCN1C2=NC(=NC(=C2)C3(CC3)[S@](=N)(=O)C)C4=C5C=CNC5=NC=C4 [AZD6738] (first compound max 1 µM, 7x7, partner max 10 µM)"
readout_name = "combination Emax"
result = 0.636

[[record]]
compound = "CCN(CCO)CCCOc1ccc2c(Nc3cc(CC(=O)Nc4cccc(F)c4)[nH]n3)ncnc2c1 [AZD2811] + O=C(c1cc(Cc2n[nH]c(=O)c3ccccc23)ccc1F)N1CCN(C(=O)C2CC2)CC1 [Olaparib] (first compound max 1 µM, 7x7, partner max 10 µM)"
readout_name = "combination Emax"
result = 0.212

[[record]]
compound = "COc1cccc2c1C(=O)c1c(O)c3c(c(O)c1C2=O)C[C@@](O)(C(=O)CO)C[C@@H]3O[C@H]1C[C@H](N)[C@H](O)[C@H](C)O1 [Doxorubicin] + Cc1cc2ncnn2cc1Nc1ncc2c(n1)n(C1CCOCC1)c(=O)n2C [AZD7648] (first compound max 1 µM, 7x7, partner max 10 µM)"
readout_name = "combination Emax"
result = 0.322


Consider the record given below.
Query :: Dear colleague, I am looking for the recorded combination Emax of the following compound: Cn1cnc2c(F)c(Nc3ccc(Br)cc3Cl)c(C(=O)NOCCO)cc21 [Selumetinib] + CC(C)n1c(=O)n(C)c2cnc3cc(F)c(-c4ccc(OCCCN5CCCCC5)nc4)cc3c21 [AZD1390] (first compound max 10 µM, 7x7, partner max 0.3 µM)
Result :: 0.388

====

Give measured combination Emax for each item. Keep answers brief.
System: NCI-H2818 (Mesothelioma)
Experiment: combination Emax (second highest fraction inhibited in the dose matrix, 72 h); higher = more inhibition; extreme values may be limits of the assay
One number for each entry.

Below, 4 compounds whose answers are already recorded.
[[record]]
compound = "CCc1c2c(nc3ccc(O)cc13)-c1cc3c(c(=O)n1C2)COC(=O)[C@]3(O)CC [SN-38] + CN(C)CCCOc1ccc(-c2ccc3ncc4c(c3c2)n(C2CCOCC2)c(=O)n4C)cn1 [AZD0156] (first compound max 0.3 µM, 7x7, partner max 1 µM)"
assayed_target = "NCI-H2818 (Mesothelioma)"
readout_name = "combination Emax"
result = 0.499

[[record]]
compound = "CC(=O)Nc1cccc(-n2c(=O)n(C3CC3)c(=O)c3c(Nc4ccc(I)cc4F)n(C)c(=O)c(C)c32)c1 [Trametinib] + Cc1nc(-c2cn3c(n2)-c2ccc(-c4cnn(C(C)(C)C(N)=O)c4)cc2OCC3)n(C(C)C)n1 [Taselisib] (first compound max 1 µM, 7x7, partner max 10 µM)"
assayed_target = "NCI-H2818 (Mesothelioma)"
readout_name = "combination Emax"
result = 0.428

[[record]]
compound = "Cn1cnc2c(F)c(Nc3ccc(Br)cc3Cl)c(C(=O)NOCCO)cc21 [Selumetinib] + C[C@@H]1COCCN1C2=NC(=NC(=C2)C3(CC3)[S@](=N)(=O)C)C4=C5C=CNC5=NC=C4 [AZD6738] (first compound max 10 µM, 7x7, partner max 10 µM)"
assayed_target = "NCI-H2818 (Mesothelioma)"
readout_name = "combination Emax"
result = 0.252

[[record]]
compound = "NC1(C(=O)N[C@@H](CCO)c2ccc(Cl)cc2)CCN(c2ncnc3[nH]ccc23)CC1 [Capivasertib] + COc1nnc2ccc(N3CCC(c4ccc(OCCN5CCN(C)C(=O)[C@H]5C)cc4)CC3)nn12 [AZD5153] (first compound max 10 µM, 7x7, partner max 1 µM)"
assayed_target = "NCI-H2818 (Mesothelioma)"
readout_name = "combination Emax"
result = 0.238


For each listed entry, give its combination Emax.
1. COc1cccc(OCCCN)c1-c1cc(Nc2cnc(C#N)cn2)n[nH]1 [Prexasertib] + O=C(c1cc(Cc2n[nH]c(=O)c3ccccc23)ccc1F)N1CCN(C(=O)C2CC2)CC1 [Olaparib] (first compound max 1 µM, 7x7, partner max 10 µM)
2. Cc1c2c(nn1C)CSCc1cc(n(C)n1)CSc1cc(c3ccccc3c1)OCCCc1c(C(=O)O)n(C)c3c-2c(Cl)ccc13 [AZD5991] + C[C@@H]1COCCN1C2=NC(=NC(=C2)C3(CC3)[S@](=N)(=O)C)C4=C5C=CNC5=NC=C4 [AZD6738] (first compound max 1 µM, 7x7, partner max 10 µM)

Result ::
0.285
0.496

Query :: Given C[C@@H](c1ccc2nccn2c1)n1nnc2ncc(-c3cnn(C)c3)nc21 [Savolitinib] + Cc1c2c(nn1C)CSCc1cc(n(C)n1)CSc1cc(c3ccccc3c1)OCCCc1c(C(=O)O)n(C)c3c-2c(Cl)ccc13 [AZD5991] (first compound max 1 µM, 7x7, partner max 1 µM) , state its recorded combination Emax.
Result :: 0.16
